All figures here come from patent US20100184701A1.

- system: T1, rat angiotensin 2 type 1 receptor (rat, UniProt P25095 1-359)
- T1 sequence (looked up): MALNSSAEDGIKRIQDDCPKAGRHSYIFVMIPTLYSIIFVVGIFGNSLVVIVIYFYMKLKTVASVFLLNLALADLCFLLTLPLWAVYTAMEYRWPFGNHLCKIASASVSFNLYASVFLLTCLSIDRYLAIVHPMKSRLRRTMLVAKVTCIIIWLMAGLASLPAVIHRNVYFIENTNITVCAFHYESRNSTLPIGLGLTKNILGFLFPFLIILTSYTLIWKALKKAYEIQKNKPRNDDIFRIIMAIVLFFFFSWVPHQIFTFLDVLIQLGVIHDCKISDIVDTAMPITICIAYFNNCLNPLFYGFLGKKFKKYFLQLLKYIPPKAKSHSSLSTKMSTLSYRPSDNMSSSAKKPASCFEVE
- assay-text: cell-based or functional assay
Non-standard residues stand in square brackets, D forms with d. No end group written: not given here. Sar = CNCC(=O)O
Below is a list of entries, each paired with its recorded IP One Max (%) value.
Write down the numeric answer in % and omit the unit.

binder	IP One Max (%)
[Sar]RVYRHP-NH2 (N-terminus assumed; SMILES CNCC(=O)N[C@@H](CCCNC(=N)N)C(=O)N[C@H](C(=O)N[C@@H](Cc1ccc(O)cc1)C(=O)N[C@@H](CCCNC(=N)N)C(=O)N[C@@H](Cc1c[nH]cn1)C(=O)N1CCC[C@H]1C(N)=O)C(C)C) [SEQ ID NO: 45]	10.2
XRVFIHPA (Sar (sarcosine) at 1; D-Ala at 8) [SEQ ID NO: 48]	13.9
VYIHPF (cyclic, as printed: Cyclo(...)) [SEQ ID NO: 38]	20.8
GRVYIHPA (Me2G (N,N-dimethylglycine) at 1) [SEQ ID NO: 32]	6.8

What IP One Max (%) value was documented for this binder, DRVYIHPG-OH [SEQ ID NO: 56] ?
98.4

Which value of IP One Max (%) has been reported for GRVYVHPA (Me2G (N,N-dimethylglycine) at 1) [SEQ ID NO: 31] in the records?
6.2

Which IP One Max (%) is listed for DRVYYHP (C-terminal amide (NH2)) [SEQ ID NO: 57] ?
35.3

I am curious: what IP One Max (%) value has been reported for FVYIHPFVYIHPFVYIHP (cyclic, as printed: Cyclo(...)) [SEQ ID NO: 37] ?
14.7

Form field: reported IP One Max (%) of DRVYYHP (D-Asp at 1; C-terminal amide (NH2)) [SEQ ID NO: 58]
9.94

I would be grateful if you could share the reported IP One Max (%) for XRVYYHP (Sar (sarcosine) at 1) [SEQ ID NO: 52] .
8

Would you mind telling me what IP One Max (%) value was observed for DRVYIHPA [SEQ ID NO: 25] ?
14.1
